Numbers sourced from patent US11149031B2.

molecular target: ERα in MCF7 cells (Homo sapiens (Human)); test: Test C: estrogen receptor degradation activity, ERα in cell western assay in MCF7 cells; format: cell-based; details: 4 hours post compound addition, ERα in cell western, read-out: Degradation IC50
Sequence (P03372 whole entry): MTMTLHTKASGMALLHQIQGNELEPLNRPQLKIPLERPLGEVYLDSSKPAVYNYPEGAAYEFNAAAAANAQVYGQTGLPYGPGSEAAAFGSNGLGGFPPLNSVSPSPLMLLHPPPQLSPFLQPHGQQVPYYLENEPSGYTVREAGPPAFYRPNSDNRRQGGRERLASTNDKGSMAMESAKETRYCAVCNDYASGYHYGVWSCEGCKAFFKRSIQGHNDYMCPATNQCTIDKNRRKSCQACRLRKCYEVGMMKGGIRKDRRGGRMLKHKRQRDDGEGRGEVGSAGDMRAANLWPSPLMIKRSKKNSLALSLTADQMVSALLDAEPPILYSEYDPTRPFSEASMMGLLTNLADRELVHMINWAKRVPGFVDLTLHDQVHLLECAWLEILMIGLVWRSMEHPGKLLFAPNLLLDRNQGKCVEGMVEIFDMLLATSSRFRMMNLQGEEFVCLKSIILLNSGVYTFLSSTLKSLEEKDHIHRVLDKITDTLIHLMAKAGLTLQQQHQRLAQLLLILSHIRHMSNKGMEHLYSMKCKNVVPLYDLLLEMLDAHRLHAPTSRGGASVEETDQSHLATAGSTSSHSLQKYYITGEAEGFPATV
Please use rule met for DC50 under 0.4 nM and rule not met for everything else, ties included.

Asked: Record Oc1ccc2c(c1)CCCC(c1ccc(OC(F)F)c(F)c1)=C2c1ccc(O[C@H]2CCN(CCCF)C2)nc1 [Example 241] : is its DC50 strictly below 0.4 nM?
Given back: rule met

Asked: Record Cc1c(F)cccc1C1=C(c2ccc(O[C@H]3CCN(CCCF)C3)cc2)c2ccc(O)cc2OCC1 [Example 126] : is its DC50 strictly below 0.4 nM?
Given back: rule met

Asked: Record O=C(O)c1ccc2c(c1)CCCC(c1ccc(Cl)cc1Cl)=C2c1ccc(O[C@H]2CCN(CCCF)C2)nc1 [Example 247] : is its DC50 strictly below 0.4 nM?
Given back: rule met

Asked: Record O=C1COc2ccc(C3=C(c4ccc(O[C@H]5CCN(CCCF)C5)cc4)c4ccc(O)cc4SC3)cc2N1 [Example 38] : is its DC50 strictly below 0.4 nM?
Given back: rule not met

Asked: Record O=C(O)c1ccc2c(c1)SCCC(c1ccc(Cl)cc1Cl)=C2c1ccc(O[C@H]2CCN(CCCF)C2)cc1 [Example 203] : is its DC50 strictly below 0.4 nM?
Given back: rule not met

Asked: Record Oc1ccc2c(c1)SCC(c1ccc(C(F)F)cc1F)=C2c1ccc(O[C@H]2CCN(CCCF)C2)cc1 [Example 62] : is its DC50 strictly below 0.4 nM?
Given back: rule met

Asked: Record Oc1ccc(C2=C(c3ccc(O[C@H]4CCN(CCCF)C4)cc3)c3ccc(O)cc3SCC2)c(F)c1 [Example 169] : is its DC50 strictly below 0.4 nM?
Given back: rule met

Asked: Record Cc1ccc(C2=C(c3ccc(O[C@H]4CCN(CCCF)C4)cc3)c3cc(F)c(O)cc3OCC2)c(F)c1 [Example 138] : is its DC50 strictly below 0.4 nM?
Given back: rule not met

Asked: Record CC1Cc2c([nH]c3ccccc23)C(c2c(F)cc(O[C@H]3CCN(CCCF)C3)cc2F)N1CC(C)(C)F (single isomer, unassigned) [Example 257] : is its DC50 strictly below 0.4 nM?
Given back: rule not met

Asked: Record Oc1ccc2c(c1)SCC(c1ccc(O)nc1F)=C2c1ccc(O[C@H]2CCN(CCCF)C2)cc1 [Example 46] : is its DC50 strictly below 0.4 nM?
Given back: rule met

Asked: Record Oc1ccc2c(c1F)OCCC(c1cccc3c1CCN3)=C2c1ccc(O[C@H]2CCN(CCCF)C2)cc1 [Example 134] : is its DC50 strictly below 0.4 nM?
Given back: rule not met

Asked: Record CCOc1ccc(C2=C(c3cnc(O[C@H]4CCN(CCCF)C4)nc3)c3ccc(O)cc3SC2)c(F)n1 [Example 76] : is its DC50 strictly below 0.4 nM?
Given back: rule not met

Asked: Record CC(C)(O)c1ccc(C2=C(c3ccc(O[C@H]4CCN(CCCF)C4)cc3)c3ccc(O)cc3SC2)c(F)c1 [Example 33] : is its DC50 strictly below 0.4 nM?
Given back: rule not met

Asked: Record NS(=O)(=O)c1ccc(C2=C(c3ccc(O[C@H]4CCN(CCCF)C4)cc3)c3ccc(O)cc3SC2)cc1 [Example 42] : is its DC50 strictly below 0.4 nM?
Given back: rule not met

Asked: Record Cc1ccc(C2=C(c3ccc(O[C@H]4CCN(CCCF)C4)cc3)c3ccc(O)cc3SC2)c(F)c1F [Example 64] : is its DC50 strictly below 0.4 nM?
Given back: rule met

Asked: Record Cc1cc(C2=C(c3ccc(O[C@H]4CCN(CCCF)C4)cc3)c3ccc(C(=O)O)cc3SCC2)ccc1Cl [Example 211] : is its DC50 strictly below 0.4 nM?
Given back: rule met

Asked: Record CC1(C)Cc2cc(C3=C(c4ccc(O[C@H]5CCN(CCCF)C5)nc4)c4ccc(O)cc4CCC3)ccc2N1 [Example 242] : is its DC50 strictly below 0.4 nM?
Given back: rule not met

Asked: Record Oc1ccc2c(c1)OCCC(c1cccc3c1CCN3)=C2c1ccc(O[C@H]2CCN(CCCF)C2)cc1 [Example 117] : is its DC50 strictly below 0.4 nM?
Given back: rule not met

Asked: Record Oc1ccc2c(c1)C(c1ccc(O[C@H]3CCN(CCCF)C3)cc1)=C(c1ccc(OC(F)(F)F)cc1F)CC2 [Example 10] : is its DC50 strictly below 0.4 nM?
Given back: rule not met

Asked: Record Cc1cc(F)ccc1C1=C(c2ccc(O[C@H]3CCN(CCCF)C3)cc2)c2ccc(O)cc2SCC1 [Example 165] : is its DC50 strictly below 0.4 nM?
Given back: rule met

Asked: Record Oc1ccc2c(c1F)OCCC(c1ccc3[nH]ccc3c1)=C2c1ccc(O[C@H]2CCN(CCCF)C2)cc1 [Example 113] : is its DC50 strictly below 0.4 nM?
Given back: rule not met

Asked: Record Oc1ccc2c(c1)SCC(c1ccc(OC(F)(F)F)cc1F)=C2c1ccc(O[C@H]2CCN(CCCF)C2)cc1 [Example 37] : is its DC50 strictly below 0.4 nM?
Given back: rule not met

Asked: Record Oc1ccc2c(c1Cl)OCCC(c1ccc3cc[nH]c3c1)=C2c1ccc(O[C@H]2CCN(CCCF)C2)cc1 [Example 123] : is its DC50 strictly below 0.4 nM?
Given back: rule not met

Asked: Record Oc1ccc2c(c1)C(c1ccc(O[C@H]3CCN(CCCF)C3)cc1)=C(c1ccc(F)cc1Cl)CCS2 [Example 175] : is its DC50 strictly below 0.4 nM?
Given back: rule met

Asked: Record Oc1ccc2c(c1F)OCCC(c1ccc3c(c1)CCN3)=C2c1ccc(O[C@H]2CCN(CCCF)C2)cc1 [Example 107] : is its DC50 strictly below 0.4 nM?
Given back: rule not met

Asked: Record Oc1ccc2c(c1)SCC(c1ccc(OC(F)F)c(F)c1)=C2c1ccc(O[C@H]2CCN(CCCF)C2)cc1 [Example 30] : is its DC50 strictly below 0.4 nM?
Given back: rule not met

Asked: Record COc1ccc(C2=C(c3ccc(O[C@H]4CCN(CCCF)C4)cc3)c3ccc(O)cc3SCC2)c(F)c1 [Example 189] : is its DC50 strictly below 0.4 nM?
Given back: rule met
